src = the supplement of paper PMC11908140

B1: library; numbered along this chain (parent)
chain: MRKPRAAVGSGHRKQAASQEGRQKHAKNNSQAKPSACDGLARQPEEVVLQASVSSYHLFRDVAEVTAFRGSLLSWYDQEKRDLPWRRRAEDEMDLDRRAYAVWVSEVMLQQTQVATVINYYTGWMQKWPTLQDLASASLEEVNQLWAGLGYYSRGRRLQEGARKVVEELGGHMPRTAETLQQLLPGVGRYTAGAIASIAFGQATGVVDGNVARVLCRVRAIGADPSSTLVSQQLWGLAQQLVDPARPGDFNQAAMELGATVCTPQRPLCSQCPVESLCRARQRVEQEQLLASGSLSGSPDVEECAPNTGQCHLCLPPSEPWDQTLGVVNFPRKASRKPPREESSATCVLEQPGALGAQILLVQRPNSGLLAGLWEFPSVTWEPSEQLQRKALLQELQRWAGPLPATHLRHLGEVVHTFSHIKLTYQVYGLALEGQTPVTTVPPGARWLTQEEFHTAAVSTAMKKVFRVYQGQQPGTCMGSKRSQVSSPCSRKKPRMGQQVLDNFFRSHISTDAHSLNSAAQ

# Variants of: B1
# assayName: 8OG:A repair function score (normalized; synonymous = 0, nonsense = -1) (normalized log-likelihood score); higher = more repair activity (WT-like);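 further: cells sorted at 72 h after reporter transfection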
# statedConditions: with 8OG:A DNA repair reporter (GFP) in HEK-293 MUTYH KO cells
# 8OG:A repair function score listing for each entry below
parameter: 8OG:A repair function score

>>> testresult("Q113L")
-0.239
>>> testresult("V261E")
-0.804
>>> testresult("I509D")
-0.00523
>>> testresult("I221F")
-0.597
>>> testresult("V458N")
-0.786
>>> testresult("N210C")
-0.854
>>> testresult("T191L")
-0.585
>>> testresult("A357Y")
-0.118
>>> testresult("P404S")
-0.587
>>> testresult("H172D")
-0.0948
>>> testresult("G161Q")
-0.911
>>> testresult("K337Y")
-0.118
>>> testresult("V284R")
-0.149
>>> testresult("Q450C")
-0.0453
>>> testresult("G236C")
0.116
>>> testresult("S483H")
0.00458
>>> testresult("Q499V")
0.0113
>>> testresult("S105D")
-0.841
>>> testresult("D94W")
-1
>>> testresult("R60F")
-0.0889
>>> testresult("Q450M")
-0.0723
>>> testresult("A291V")
-0.0187
>>> testresult("V242S")
-0.772
>>> testresult("I509C")
-0.00892
>>> testresult("D243G")
-0.755
>>> testresult("D512C")
0.0193
>>> testresult("P129V")
-0.608
>>> testresult("R175M")
-0.155
>>> testresult("S298H")
0.0283
>>> testresult("A177Q")
-0.125
>>> testresult("F376C")
-0.559
>>> testresult("V465A")
-0.0879
>>> testresult("Y76E")
-1.5
>>> testresult("L58C")
-0.0122
>>> testresult("D61I")
-0.0219
>>> testresult("V284E")
-0.033
>>> testresult("R409W")
0.0733
>>> testresult("Q50A")
-0.00978
>>> testresult("A334L")
-0.0917
>>> testresult("Y425D")
-0.805
>>> testresult("D82R")
-0.0624
>>> testresult("E46G")
-0.0545
>>> testresult("D208E")
-0.991
>>> testresult("H172P")
-0.512
>>> testresult("G161E")
-0.898
>>> testresult("R2G")
0.122
>>> testresult("E342R")
0.0113
>>> testresult("L355P")
-0.132
>>> testresult("M462I")
-0.13
>>> testresult("G123S")
0.0793
>>> testresult("F453R")
-1.09
>>> testresult("L392E")
-1.11
>>> testresult("N119M")
-0.216
>>> testresult("F504H")
0.0204
>>> testresult("P488G")
0.0021
>>> testresult("L237F")
-0.257
>>> testresult("P34R")
0.0769
>>> testresult("T260I")
-0.0181
>>> testresult("P338W")
0.053
>>> testresult("D61T")
0.00691
>>> testresult("E46W")
-0.0064
>>> testresult("V211L")
-0.586
>>> testresult("R283E")
-0.246
>>> testresult("S227H")
-0.197
>>> testresult("T511R")
0.00505
>>> testresult("Q50K")
0.0673
>>> testresult("G429I")
-0.0856
>>> testresult("R281W")
-0.105
